# assay.overview: protein stability index of a GFP-peptide fusion (GPS, HEK-293T) (PSI 1-6); higher = more stable;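 also: 24-mer peptide tiles fused after GFP, lentivirally expressed, FACS-sorted into six equal bins by GFP/DsRed ratio, decoded by Illumina sequencing, PSI is the read-weighted mean bin number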
# run.parameters: treatment: DMSO; c terminus: a fixed tail appended
Assignment: determine reported protein stability index for the given sequences.
Form field (numeric): enter value without unit.

**Q:** Name the reported protein stability index value associated with the sequence CVLYACFILGRLCVPVFANMSREP [SOAT2]
**A:** 3

**Q:** Could you tell me which protein stability index is on file for PAPKSTYECRCIGEEKEMWNFGEK [TIA1] ?
**A:** 3.86

**Q:** Suppose we examine the sequence ILKRRSDEALERCQILELLNAELE [CCDC89] ; what protein stability index value has been reported?
**A:** 2.68

**Q:** Request the reported protein stability index associated with NMHLNLRPFDCPVCNKKFKMKHHL [ZBTB22]
**A:** 2.4

**Q:** Need protein stability index of SQLDSGVSQAVEGPEELSRSSSES [RIPK4] , thanks.
**A:** 5.5

**Q:** Query: protein stability index; subject: RDQHPQPSLGDSLESIPSLSQSPE [RTN2]
**A:** 5.44

**Q:** Would you mind telling me what protein stability index value was observed for YETESETESEIESETDFETEPETA [GNAS] ?
**A:** 5.2

**Q:** Quick one: protein stability index for QKHYVYGPLPQSFDKEWVAKQTKR [COX4I1] ?
**A:** 3.55

**Q:** Which protein stability index value belongs to LQRQAEQNPTASYYNVVLLRYQFS [FCHO1] ?
**A:** 2.23

**Q:** # lookup: protein stability index of YGSFHQQYWLDGKIIAVGVIDILP [ATE1]
**A:** 3.36

**Q:** Could you tell me which protein stability index is on file for AAHAVVLCALPVHVAVEHQLPPAS [SOAT2] ?
**A:** 2.16

**Q:** Quick one: protein stability index for FYPVMLILFLVIGGMLNFMMHDQR [SOAT2] ?
**A:** 3.34

**Q:** Query (sequence): HDPLWRRHCKKYWLISEEEKTQKN [FBXO3] ; field requested: protein stability index
**A:** 3.56

**Q:** Quick one: protein stability index for PLKAQNDLDISRIKRGNTTLESTD [P2RY14] ?
**A:** 5

**Q:** // lookup protein stability index for RDYIHSLKLLNVLEEYITDEQKEE [FAM9B]
**A:** 3.37

**Q:** Return reported protein stability index; argument: FGYLGDRYNRKYLMCGGIAFWSLV [SPNS1]
**A:** 3.1

**Q:** For PAEQAFWCLVQICEKYLPGYYSEK [TBC1D10A] , what is its reported protein stability index?
**A:** 3.37

**Q:** What value of protein stability index has been recorded for this entry: ESQLPEEWENNRESLIVFMEQVHR [CPXM2]
**A:** 3.79

**Q:** Using the record for VKRKIRDESLCPQHHEALSLFCYE [TRIM39] , report its protein stability index.
**A:** 2.38

**Q:** Which protein stability index is listed for VERYHNLCQKQVKAQLPRRESERR [FBXO28] ?
**A:** 4.08

**Q:** Any idea what its protein stability index is? The sequence is DITDDCICDLARSIDFNKDGHIDI [PPEF2]
**A:** 3.87

**Q:** GET /values?readout=protein stability index&item= PRLVSETAERKQEQKTGTEAEAAD [MFSD9]
**A:** 5.77

**Q:** protein stability index lookup needed for KQDSYEQGDSSQQSLKGHLRNNFQ [ZC2HC1C] , thanks.
**A:** 4.69

**Q:** Could you share which protein stability index value was measured for HDESPGNNVVDISVPPTTDGQKPN [RAB11B] ?
**A:** 5.46

**Q:** Can you look up the measured protein stability index of ASLGLTQTQVKIWFQNKRSKFKKL [DLX1] for me?
**A:** 2.37

**Q:** Name the recorded protein stability index for ITYPMLFKLTNKNSDRMTHCGVLE [UFD1] .
**A:** 2.46

**Q:** Can you look up the measured protein stability index of PSVPPTIKEEENSEEELAAATTSK [MYBL2] for me?
**A:** 5.52

**Q:** Could you share which protein stability index value was measured for VEVMDETNCQKVLNMWCCCFFKRR [CSNK1G3] ?
**A:** 3.21

**Q:** Suppose we examine the sequence HSFQSSHRPSLNSVSLQINCQSVA [DLC1] ; what protein stability index value has been reported?
**A:** 2.95

**Q:** Give the measured protein stability index of GPFGGFFASGFKRAFKIKDFANTI [CDS1] .
**A:** 2.38

**Q:** # protein stability index lookup, item CQGQPQGKAVVSHSKGHKSSRQEK [ELOA2]
**A:** 5.38

**Q:** // lookup protein stability index for SSGNTVLLLILCMQHSFPEPGRLY [TMEM192]
**A:** 3.1

**Q:** Given the sequence ERITILRGNHESRQITQVYGFYDE [PPP2CA] , what is its reported protein stability index?
**A:** 2.84

**Q:** Look up protein stability index: LWKRMDKLEAEKRILQEKLDQPVS [CCDC6]
**A:** 3.81

**Q:** Name the reported protein stability index value associated with the sequence KEIAKNLIQPINHTTLQCLAARVI [FEM1C]
**A:** 2.33

**Q:** Which value of protein stability index has been reported for RLCGRQVSRGPGVNVGTTALWKHL [ZBED2] in the records?
**A:** 2.29

**Q:** Would you mind telling me what protein stability index value was observed for MEDKEMTGPQLPESLEDVAMYISQ [ZNF263] ?
**A:** 4.73

**Q:** Fill in: protein stability index of RVKLISNKGTETDNDPSCVHPIIK [PHTF1] is ___
**A:** 3.58

**Q:** For the sequence shown here, KQLLDSKIGFEIGIENEEDTSKQK [ZNF449] , give the reported protein stability index.
**A:** 5.3

**Q:** Quick check: protein stability index of MSFPHFGHPYRGASQFLASASSST [IRX6] ?
**A:** 3.25
